- System: Escherichia coli
- conditionsUsed: Concentration 20 uM; ASSAY_TEST Inhibition of Bacterial Growth; detection method Absorption (OD600); MEDIA CAMHB; plate type 384well; NBS; CORNING #3640; time 18 hr
- Description: Antibacterial activity against Escherichia coli ATCC 25922 (CO-ADD:GN_001); MIC in CAMBH media using NBS plates, by OD(600)
Entries with a potency or affinity are not part of this list.
What Inhibition was measured for each of the following?
Answers are plain numbers, in %.

compound	quantitativeResult
CC(C(O)c1ccc(O)cc1)N1CCC(Cc2ccccc2)CC1.O.O=C(O)C(O)C(O)C(=O)O (stereo not given)	-1.84
O=C(O)COCCN1CCN(C(c2ccccc2)c2ccc(Cl)cc2)CC1 (stereo not given) [CETIRIZINE]	-0.91
CC(C)NCC(O)COc1ccc(COCCOC(C)C)cc1.CC(C)NCC(O)COc1ccc(COCCOC(C)C)cc1.O=C(O)/C=C/C(=O)O (stereo not given) [BISOPROLOL FUMARATE]	1.99
COCCCC/C(=N\OCCN)c1ccc(C(F)(F)F)cc1.O=C(O)/C=C\C(=O)O [FLUVOXAMINE MALEATE]	3.58
CCN(CC)CCOC(=O)c1ccc(N)cc1.Cl [PROCAINE HYDROCHLORIDE]	4.36
Cc1ccc(S(=O)(=O)NC(=O)NN2CCCCCC2)cc1 [TOLAZAMIDE]	-1.66
CCc1cc(C(N)=S)ccn1 [ETHIONAMIDE]	2.06
CC(C)c1nc(CN(C)C(=O)N[C@H](C(=O)N[C@@H](Cc2ccccc2)C[C@H](O)[C@H](Cc2ccccc2)NC(=O)OCc2cncs2)C(C)C)cs1 [RITONAVIR]	-0.63

Hi, could you look up Inhibition for each item in my list?
1. CC(C)(C)NC(=O)[C@@H]1CN(Cc2cccnc2)CCN1C[C@@H](O)C[C@@H](Cc1ccccc1)C(=O)N[C@H]1c2ccccc2C[C@H]1O.O=S(=O)(O)O [INDINAVIR SULFATE]
2. N#Cc1ccc(C(c2ccc(C#N)cc2)n2cncn2)cc1 [LETROZOLE]

Output:
1. 5.22
2. -0.32

Hi, could you look up Inhibition for each item in my list?
1. CCCc1c(OCCCCc2nnn[nH]2)ccc(C(C)=O)c1O [TOMELUKAST]
2. CC(C)(C)C(O)/C=C/c1ccc2c(c1)OCO2 (stereo not given) [STIRIPENTOL]
3. CCCc1nc2c(C)cc(-c3nc4ccccc4n3C)cc2n1Cc1ccc(-c2ccccc2C(=O)O)cc1
4. CC(C)(C)NC(=O)[C@@H]1C[C@@H]2CCCC[C@@H]2CN1C[C@@H](O)[C@H](Cc1ccccc1)NC(=O)[C@H](CC(N)=O)NC(=O)c1ccc2ccccc2n1.CS(=O)(=O)O [SAQUINAVIR MESYLATE]
5. CCC(=O)O[C@]1(C(=O)CCl)[C@@H](C)C[C@H]2[C@@H]3CCC4=CC(=O)C=C[C@]4(C)[C@@]3(F)[C@@H](O)C[C@@]21C [CLOBETASOL PROPIONATE]

Output:
7.84
6.07
4.91
7.7
-1.37
